Molecular target: SARS-CoV-2 full length spike protein, V367F mutant, expressed on CHO cells (SARS-CoV-2, UniProt P0DTC2 14-1273)
Each entry below lists one item and its recorded median fluorescence fold over isotype control value.

Here are 3 binders together with their reported answers.
>  <binder>
antibody 381 (antibody, V domains shown) VH: QVQLVESGGGVVQPGRSLRLSCAASGFTFSSYAMHWVRQAPGKGLEWVAVISYDGSNKYYADSVKGRFTISRDNSKNTLYLQMNSLRAEDTAVYYCARDRQYYDILTGYYLPTSEYYFDYWGQGTLVTVSS VL: DIQMTQSPSSVSASVGDRVTITCRASQGISSWLAWYQQKPGKAPKLLIYAASSLQSGVPSRFSGSGSGTDFTLTISSLQPEDFATYYCQQANSFPPTFGGGTKVEIK

>  <measurement>
43.6 fold over isotype

$$$$
>  <binder>
antibody 404 (antibody, V domains shown) VH: QVQLVESGGGVVQPGRSLRLSCAASGFTFSSYGMHWVRQAPGKGLEWVAVIWYDGSNKYYADSVKGRFTISRDNSKNTLYLQMNSLRAEDTAVYYCARLAVDISFDGSDGMDVWGQGTTVTVSS VL: SYELTQPPSVSVSPGQTARITCSGDALPKKYAYWYQQKSGQAPVLVIYEDSKRPSGIPERFSGSSSGTMATLTISGAQVEDEADYYCYSTDSSGKGVFGTGTKVTVL

>  <measurement>
27.4 fold over isotype

$$$$
>  <binder>
antibody 397 (antibody, V domains shown) VH: QVQLVESGGGVVQPGRSLRLSCAASGFTFSSYGMHWVRQAPGKGLESVAVISYDGSNKYYADSVKGRFTISRDNSKNTLYLQMNSLRAEDTAVYYCAKEGQWELQGNAFDIWGQGTMVTVSS VL: SYELTQPPSVSVSPGQTARITCSGDALPKQYAYWYQQKPGQAPVLVIYKDSERPSGIPERFSGSSSGTTVTLTISGVQAEDEADYYCQSGDSSGTYRVFGGGTKLTVL

>  <measurement>
32.8 fold over isotype

$$$$

Field: next binder
// sample antibody 402 (antibody, V domains shown) VH: QVQLVQSGAEVKKPGASVKVSCKVSGYTLTELSMHWVRQAPGKGLEWMGGFDPEDVETIYAQKFQGRVTMTEDTSTDTAYMELSSLRSEDTAVYYCATGVAVVGTSHSYYYYYGMDVWGQGTTVTVSS VL: DIQMTQSPSSLSASVGDRVTITCRASQGISNYLAWYQQKPGKVPKLLIYAASTLQSGVPSRFSGSGSGTDFTLTISSLQPEDVATYYCQKYNSAPFTFGPGTKVDIK , its median fluorescence fold over isotype control was 46.9 fold over isotype
